Tested on: récepteurs muscariniques
Parameters: species or system rat CFY
measurement_context: 1,5 nM (³H) QNB; rat brain homogenate without cerebellum; 25°C, 60 minutes; non-specific binding with atropine 10⁻⁵M; test concentration not given
measurement_type: Inhibition, % (binding de ³H QNB)

INSERT INTO measurements (compound, measurement_type, observed) VALUES
  ('Cc1ccc2c(c1)C(N1CCN(C)CC1)=Nc1cccnc1N2', 'Inhibition, % (binding de ³H QNB)', '67,3%'),
  ('CN1CCN(C2=Nc3cnccc3Sc3ccccc32)CC1', 'Inhibition, % (binding de ³H QNB)', '57,61%'),
  ('CN1CCN(C2=Nc3ccccc3Sc3ccc(Cl)cc32)CC1 [Clothiapine, reference compound]', 'Inhibition, % (binding de ³H QNB)', '38,05%'),
  ('CN1CCN(C2=Nc3ccccc3Nc3ccncc32)CC1', 'Inhibition, % (binding de ³H QNB)', '4,48%'),
  ('CN1CCN(C2=Nc3cccnc3N(C=O)c3ccccc32)CC1', 'Inhibition, % (binding de ³H QNB)', '43,38%'),
  ('CN1CCN(C2=Nc3cccnc3Nc3ccc(Cl)cc32)CC1', 'Inhibition, % (binding de ³H QNB)', '62,08%');
